tested on: MS2 coat protein; test: apparent KD of MS2 coat protein; designed switch direction (-1 OFF switch, 1 ON switch): -1; higher = weaker reporter binding; settings: Eterna round: R95; input ligand: none

sequence-input: CGGGAGGGACAAGCUUUUUGCACGUCUGUUAUUGAUGCAACAUGAGGAUCACCCAUGUUUAGGGUGUGAGAGGAUGG [JR_SV3TOV2_Sub051] (puzzle: Sensor v3, turn-off variant 2)
apparent KD of MS2 coat protein: 0.553 µM
--
sequence-input: AAAAGGUCAGGAUAUACAAGAAAAGAAAAGAAAAGAAAAGAGUAGAAGGGACAUGAGGAUCACCCAUGUAAAAG [Default title] (puzzle: Exclusion 4)
apparent KD of MS2 coat protein: 0.0351 µM
--
sequence-input: GAUUAUGCGAGCUUUAGGGACAUGAGGAUCACCCAUGUUCGUCUUAUUGGUCUGGAUGCGCUAACAUACCUAAAUCU [JMF 46] (puzzle: Sensor v3, turn-off variant 1)
apparent KD of MS2 coat protein: 0.0226 µM
--
sequence-input: AAUUAACAAGCAAGAUCCUACAUGAGGAUCACCCAUGUGCUCGUCUUAUAAAGUACUAUCACGAAAGUGAUAGUACA [Mat - Sensor v3 - turn-off var 1 - Eli Mod - D57] (puzzle: Sensor v3, turn-off variant 1)
apparent KD of MS2 coat protein: 0.197 µM
--
sequence-input: GUGUGCUGAGGAUAUACAGAGGAAGAUAAUAGAAUAGAAUGACAUGAGGAUCACCCAUGUAGAAGGCAGAGUGU [Excluse me!! 14 - Jieux - Exclusion 2] (puzzle: Exclusion 2)
apparent KD of MS2 coat protein: 0.0331 µM
--
sequence-input: GUGGAACAUGAGGAUCACCCAUGUGAGGAUAUGUGAGAAGGAUUUGAGAGGGAGAGGGACAGAAGGCACUAGGA [JR_Exclu1_Sub084] (puzzle: Exclusion 1)
apparent KD of MS2 coat protein: 0.0419 µM
--
sequence-input: AUCAUGUAAGGAUAUCUUACAUGGAUCGAAAGAUCAAGUUAAGAGAAGGUACAUGAGGAUCACCCAUGUAUAAC [Ex4-3: 34] (puzzle: Exclusion 4)
apparent KD of MS2 coat protein: 0.0208 µM
--
sequence-input: GCAUCCAAAGUGAGGAUAUACCUCUGGAUACAGAGGUAGAAGGCACAUGAGGAUCACCCAUGUUUCUAGGAUGC [Fiskers BMX 4 - 37] (puzzle: Brourd's mod of Exclusion 4)
apparent KD of MS2 coat protein: 0.0139 µM
--
sequence-input: GCUGGAGCAGGAUAUUCAAUAUCACACAUGAGGAUCACCCAUGUCCAGCGAAAGCUGGAGGGAGAAGGGCUCUAGC [Mat - Exclusion 5 - Eli mod - D98] (puzzle: Exclusion 5)
apparent KD of MS2 coat protein: 0.076 µM
--
sequence-input: GCCAGAGGAGGAUAUCUAAUAUAUCACAUGAGGAUCACCCAUGUCCAGCGAAAGCUGGAGGGAGAAGGCCUCUGGC [Fiskers Ex 5 - 23] (puzzle: Exclusion 5)
apparent KD of MS2 coat protein: 0.0782 µM
--
sequence-input: AAGUACCGUCACGAUAGUGAUGGUACAACAAGCAAGUGAACAUGAGGAUCACCCAUGUCCUCAAUUGCUCGUCUUAU [Sensor 3 - 71] (puzzle: Sensor v3, turn-off variant 2)
apparent KD of MS2 coat protein: 0.0285 µM
--
sequence-input: CGCUAGUCAGGAUAUACGAACAUGUCAAAAGACGUGAAGGGACAUGAGGAUCACCCAUGUAGAAGGGACUAGCA [salish99_ex2_r3_014] (puzzle: Exclusion 2)
apparent KD of MS2 coat protein: 0.0249 µM
--
sequence-input: GGAGAGGGAGGAUAUGCGCCAACAAACAUGAGGAUCACCCAUGUGGUGCUCCAAGAAAGGGUAGAAGGCCCUCUCC [Default title] (puzzle: Exclusion 5)
apparent KD of MS2 coat protein: 0.295 µM
--
sequence-input: AGUACUAACAGCUGACUGUUAGUACUGUAGGUUUGUGUUACAUGAGGAUCACCCAUGUCCUCAUAGGCUCGUCUUGU [Mat - Sensor v3 - Turn-off var 2 - D97] (puzzle: Sensor v3, turn-off variant 2)
apparent KD of MS2 coat protein: 0.284 µM
--
sequence-input: GAAAAGGUAGGAUAUACGAAAAGAAAGGGUAGAAAAAAAACACAUGAGGAUCACCCAUGUAGAAGGACCAAAAG [salish99_ex2_r3_027] (puzzle: Exclusion 2)
apparent KD of MS2 coat protein: 0.025 µM
--
sequence-input: GGUUGGCGAGGAUAUACAUGAGGAUCACCCAUGUGAGGGAAAAAAGUGAGAACGAAAAGUAGAAGGCGCUGACG [salish99_ex3_r3_063] (puzzle: Exclusion 3)
apparent KD of MS2 coat protein: 0.0805 µM
--
sequence-input: GGUACUAACACGAGAGUGUUAGUACUAUAAGCUUGUGUUACAUGAGGAUCACCCAUGUCCUCAUAAGCUCGUCUUAU [Mat - Sensor v3 - Turn-off var 2 - D76] (puzzle: Sensor v3, turn-off variant 2)
apparent KD of MS2 coat protein: 0.156 µM

----------
system: K4 kissing-loop RNA reporter; experiment: apparent KD of K4 kissing-loop reporter; higher = weaker reporter binding; conditions: Eterna round: R107; input ligand: theophylline 20 uM;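 further: bound reporter read as fluorescence of individual clusters on recovered sequencing chips by microscopy, with normalized cluster intensities fitted with a binding model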
endpoint-name: apparent KD of K4 kissing-loop reporter

sequence-input: CCAUCGCUAUUCGAUACCAGUCAUCAAAUCUUUGGUUUGAUAAAGGAGUGAUGUUCCCAAGACCCUUGGCAGCGAAUAGUGAUGG [Theophylline B K4 10]
reported-measurement: 175 nM

sequence-input: UGACUGGACUGAAGGAGCGCUAAACUCCUAGUGAUGUUAGGAAAACGAGACAAAGUCUCGAAGCAGGUAGGUCGCAGUCUAGUCU
reported-measurement: 162 nM

sequence-input: UCUAACGUUGAGGCGGCAGCGGGCCCAUCUAAGGAUAUCGGUUUACCGAGAAGGUAGUUGGACGAGAGUGAUGUUCUAUUGAGAG [theeternabot_sameState_KL_FMN_A_18]
reported-measurement: 642 nM

sequence-input: UGAUACCAGACGGCCGCCACUUCUGCAAGUCAAAGACUUGCUAAGGGAAUCGUCCAGUGAUGUUGGAGGACCGGGUCUGGUAUCU [FiskerMod 2 - Jieux - Exclusion - Tryptophan B]
reported-measurement: 999 nM

sequence-input: UGUACCGAGUCAGGAUAUGGCGUCGAAAGACGAAUUCUAGUGAUGUUAGGGAUCUGCGAAAGCAGUUCAGAAGGGACUUGGUACU [FmnBS 26 U36+U67]
reported-measurement: 470 nM

sequence-input: UGAUACCAGACUGAUACCAGCAGUGAUGUUGCUGAAAAUAAUAAAUGAGUCAAAGACUCGGGCCCUUGGCAGCAGUCUGGUAUCU [TheoBX 8 #SwitchBubble #StaticStem]
reported-measurement: 117 nM

sequence-input: UUUUAUUAAUUCUUCUAGUGAUGUUAGAUACGAGGACCGGUACGGCCGCCACUCGCUUAUUGGUUUAUAUAUUUUAUAUUCUUUA [JR_SSTryptoA_Sub015]
reported-measurement: 400 nM

sequence-input: CUGGGUUGACGAAAAGUCAACAAAAGAGAAGGAGCGCACGAAAGUGCAGGUAGGUCGCUCAUCCAGUGAUGUUGGAUCAUCCAGA [#SwitchBubble 16 #K4Late]
reported-measurement: 646 nM

sequence-input: CAUAGGAAACUAUGUUUCUCUCUUACUGAAGGAGCGCGUGAAAACGCAGGUAGGUCGCAGAUUUUGAGAGUGAUGUUCUCAAUAA [Ex Arginine A K4 18]
reported-measurement: 155 nM

sequence-input: GGAUAGGACUGAGGAUAUGGUAGUGAUGUUACCAAACUGGUUAAACAUGUCAGAAAACUGGCAUGACCAGAAGGCGGUCCUAUCG [FmnBX 27 U10+G76]
reported-measurement: 55.3 nM

sequence-input: AAACAUUGGUCUGAUACCAGCUGAUCGGAAACGAUCUUGCUGGAGUGAUGUUCCAAGUAAAGCCCUUGGCAGCAGACCGAUGAAA [MAT - Same State Theophlline B - Mod of Eli - D19]
reported-measurement: 107 nM

sequence-input: GGUGCUGUUUGUGCCGCCUUCCUCGUUCCUCGAGGACCGGUACGGCCGCCACUCGAGUGAUGUUUGGGUAGCGAUCCCUGCUAGC [Bdazzled - #14 Exc. Tryptophan A]
reported-measurement: 566 nM

sequence-input: GCCGUAGAUUGAAGGAGCGCCUUCUUACCAAGAGUGAUGUUCUUAGGUACCAUGUUCAGUAGGCAGGUAGGUCGCAAUCUACGGC
reported-measurement: 647 nM

sequence-input: UAUUCUGUUCGAAAGAACGGAAUUUCGGAAGGAGCGAGAGAAAUCUCAGGUAGGUCGCCGAAAUUAUUAGGUAGUGAUGUUACCU [Arginine A K4 5]
reported-measurement: 124 nM

// data source = the supplement of paper PMC9170038
